Measured values drawn from patent EP0515159A1 for this set.

- assay.remarks: Acute toxicity in the rat
- experimental.parameters: both sexes, Sprague-Dawley, in vivo, ip
value.kind: LD50 at 14 days (mg/kg)
Numbers only, in mg/kg.

Give the measured LD50 at 14 days of "CC1(C)[C@@H](OC(=O)CCC(=O)O)CC[C@]2(C)[C@H]3C(=O)C=C4[C@@H]5C[C@@](C)(C(=O)O)CC[C@]5(C)CC[C@@]4(C)[C@]3(C)CC[C@@H]12" .
92

====

- assay.remarks: Acute toxicity in the rat
- experimental.parameters: both sexes, Sprague-Dawley, in vivo, po
value.kind: LD50 at 14 days (mg/kg)
One number for each entry, in mg/kg.

Field request: LD50 at 14 days | item: "CC1(C)[C@@H](OC(=O)CCC(=O)O)CC[C@]2(C)[C@H]3C(=O)C=C4[C@@H]5C[C@@](C)(C(=O)O)CC[C@]5(C)CC[C@@]4(C)[C@]3(C)CC[C@@H]12"
3100

====

- Test system: Diclofenac-induced gastric ulcers
- assay.remarks: Diclofenac-induced ulcer (gastric lesions) in the rat
- Format: in vivo
- experimental.parameters: potency ratio relative to Carbenoxolone (= 1.0), Diclofenac-induced ulcers
value.kind: R
Numbers only.

These recorded examples may help you get a feel for the data.
compound: C[C@H]1[C@H](C)CC[C@]2(COC(=O)c3ccccc3C(=O)O)CC[C@]3(C)C(=CC[C@@H]4[C@@]5(C)CC[C@H](OC(=O)c6ccccc6C(=O)O)C(C)(C)[C@@H]5CC[C@]43C)[C@H]12 [IIa (M = Na)]
subject.of.test: Diclofenac-induced gastric ulcers
reported: 16.3
--
compound: CC1(C)[C@@H](OC(=O)CCC(=O)O)CC[C@]2(C)[C@H]3C(=O)C=C4[C@@H]5C[C@@](C)(C(=O)O)CC[C@]5(C)CC[C@@]4(C)[C@]3(C)CC[C@@H]12 [Carbenoxolone]
subject.of.test: Diclofenac-induced gastric ulcers
reported: 1.0
--
compound: CC1(C)[C@@H](OC(=O)c2ccccc2C(=O)O)CC[C@]2(C)[C@H]3CC=C4[C@@H]5C[C@@](C)(COC(=O)c6ccccc6C(=O)O)CC[C@]5(C)CC[C@@]4(C)[C@]3(C)CC[C@@H]12
subject.of.test: Diclofenac-induced gastric ulcers
reported: 3.5

Proceed to the following item.
Value lookup for R; key = C[C@H]1[C@H](C)CC[C@]2(COC(=O)c3ccccc3C(=O)O)CC[C@]3(C)C(=CC=C4[C@@]5(C)CC[C@H](OC(=O)c6ccccc6C(=O)O)C(C)(C)[C@@H]5CC[C@]43C)[C@H]12 [IIb (M = Na)]
17.8
